These data points were gathered from PubChem BioAssay (NCATS).

# Assay Procedure: qHTS drug screen for cell cycle checkpoint inhibitors in PARPi-resistant BRCA-mutant ovarian cancer cell lines. (AID 1963452)
# Measurement Setup: PEO1/OlaR viability, CellTiter-Glo luminescence, 96 h; stronger effect = lower value
Quantity Name: Z-AUC
Provide a numeric answer; units are not to be included.

Some solved entries appear below for comparison.
CNC(=O)c1cc(Oc2ccc(NC(=O)Nc3ccc(Cl)c(C(F)(F)F)c3)c(F)c2)ccn1 ... 0.96
CCCCC(F)(F)[C@@]1(O)CC[C@H]2[C@H](CC(=O)[C@@H]2CCCCCCC(=O)O)O1 ... -0.514
CNC(=O)c1cc(COc2nnc(Nc3ccc(Cl)cc3)c3ccoc23)ccn1 ... 0.731
Cc1nc2c([nH]1)CCN(C(=O)c1ccc(NC(=O)c3ccccc3-c3ccccc3)cc1)c1ccccc1-2 ... 0.604
COc1cc(Nc2nc3ccccc3nc2NS(=O)(=O)c2ccc(NC(=O)c3ccc(C)c(OC)c3)cc2)cc(OC)c1 ... -0.848
O=C(CO)N1CCC(c2[nH]nc(-c3ccc(Cl)cc3)c2-c2ccncn2)CC1 ... -0.00709

Q: I would be grateful if you could share the reported Z-AUC for `CCOC(=O)c1c(CSc2ccccc2)n(C)c2cc(Br)c(O)c(CN(C)C)c12` .
A: 0.838

Q: I would be grateful if you could share the reported Z-AUC for `Cc1c(C(=O)Nc2ccc(N3C[C@@H](C)O[C@@H](C)C3)nc2)cccc1-c1ccc(OC(F)(F)F)cc1` .
A: 0.823

---

# Assay Procedure: qHTS of pediatric cancer cell lines to identify multiple opportunities for drug repurposing: Primary screen for BT-37 cells (AID 1347094)
# Measurement Setup: BT-37 viability, CellTiter-Glo luminescence, 48 h; series mostly up to 57.3 µM
Records with an inconclusive call do not appear. Active and inactive are the calls of the source. Calls come from the whole dose curve; as a rule, active = well fitted cell-killing curve with a large enough effect; inconclusive = small, poorly fitted or top-dose-only effect; inactive = flat fitted curve, though single readings scatter.
API: response.call in 1 (yes) = active, 0 (no) = inactive

OC[C@H]1O[C@@H](Oc2ccc(O)cc2)[C@H](O)[C@@H](O)[C@H]1O ... 0 (no)
CN(C)c1nc(Cc2ccc(NC(=O)c3ccc(C(F)(F)F)cc3)cc2)nc(N(C)C)c1CC(=O)O ... 0 (no)
CCC(=C(CC)c1ccc(O)cc1)c1ccc(O)cc1 ... 1 (yes)
CC(C)[C@H](O)C(=O)N[C@@H](C)C(=O)N[C@@H]1C(=O)N(C)CCc2ccccc21 ... 0 (no)
O=C1Nc2ccc(I)cc2C1=Cc1cc(Br)c(O)c(Br)c1 ... 0 (no)
CC(C)N(CCCNC(=O)Nc1ccc(C(C)(C)C)cc1)C[C@H]1O[C@@H](n2cc(Br)c3c(N)ncnc32)[C@H](O)[C@H]1O ... 1 (yes)

Q: Per the records of this test, what outcome belongs to `CC(=O)N1CCN(c2ccc(OCc3nn(C)c(C)c3-c3cccc4c(CCCOc5cc(C)c(Cl)c(C)c5)c(C(=O)O)n(Cc5cccnc5)c34)cc2)CC1` ?
A: 1 (yes)

Q: Per the records of this test, what outcome belongs to O=C(O)C1=CC(O)C(O)[C@H](O)C1 (stereo partly drawn) ?
A: 0 (no)

Q: Per the records of this test, what outcome belongs to `CC(=O)OCC(=O)[C@@]12OC(C)(C)O[C@H]1C[C@H]1[C@@H]3C[C@H](F)C4=CC(=O)C=C[C@]4(C)[C@@]3(F)[C@@H](O)C[C@@]12C` ?
A: 0 (no)

Q: Per the records of this test, what outcome belongs to `CCC(=O)N1CCN(c2ccc(-n3c(=O)ccc4cnc5ccc(-c6cnc7ccccc7c6)cc5c43)cc2C(F)(F)F)CC1` ?
A: 1 (yes)

Q: Per the records of this test, what outcome belongs to `O=C(O)CCC=CCC[C@@H]1[C@H](N2CCCCC2)[C@@H](O)C[C@@H]1OCc1ccc(-c2ccccc2)cc1` ?
A: 0 (no)

Q: Per the records of this test, what outcome belongs to `COc1ccc(CCN(C)CCCOc2ccc(S(=O)(=O)c3[nH]c4ccccc4c3C(C)C)cc2)cc1OC` ?
A: 1 (yes)

Q: Per the records of this test, what outcome belongs to `CCN(CC)CCCCNc1nc2cc(Cl)c(Cl)cc2nc1-c1ccc(-c2cccs2)s1` ?
A: 1 (yes)

Q: Per the records of this test, what outcome belongs to `C[C@@]1(c2cc(-c3cncnc3)c(F)cc2F)CCSC(N)=N1` ?
A: 1 (yes)

---

# Test system: HaCat
# Assay Procedure: Cytotoxic Profiling of Annotated Libraries Using Quantitative High-Throughput Screening (AID 1296008); further: on the % scale 0 is the no-effect control and ±100 the full control effect; nearly all actives have a fitted effect of over 60% in size
# Measurement Setup: Five cell lines viability, CellTiter-Glo ATP luminescence, 48-72 h; stronger effect = lower value
Records with an inconclusive call do not appear.
Quantity Name: max response (%)
Unit % implied. Number only.

Some solved entries appear below for comparison.
CS(=O)(=O)c1ccc(C2=C(c3ccccc3)C(=O)OC2)cc1 ... -5.92
COc1cc(CNC(=O)CCCCC=CC(C)C)ccc1O ... 3.92
CC(=O)O[C@]1(C(C)=O)CC[C@H]2[C@@H]3C=C(Cl)C4=CC(=O)[C@@H]5C[C@H]5[C@]4(C)[C@@H]3CC[C@@]21C ... -0.438
COc1c(C)c2c(c(O)c1CC=C(C)CCC(=O)O)C(=O)OC2 ... -8.02

Query molecule follows.
Q: I would be grateful if you could share the reported max response for `CCC(=C(c1ccc(O)cc1)c1ccc(OCCNC)cc1)c1ccccc1` .
A: -11.9

---

# Assay Procedure: Quantitative High-Throughput drug screen in 47 multiple myeloma cell lines against the NCATS MIPE library collection: RPMI8226_ATCC cell viability assay (AID 1919871); further: nearly all actives have a fitted effect of over 30% in size
# Measurement Setup: RPMI8226 myeloma viability, CellTiter-Glo ATP luminescence, 48 h; series mostly up to 45.8 µM
# Text: PI: Beverly A. Mock Ph.D. Laboratory of Cancer Biology and Genetics, Center for Cancer Research, National Cancer Institute, National Institute of Health, Bethesda, Maryland […] 5; Detector; 425V; Luminescence; Viewlux PerkinElmer. […] 1. […] Briefly, the corresponding myeloma cell lines were screened in 1,536-well plates with 500 cells, 5-uL per well for inhibition of cell viability (assessed by measuring ATP levels with CellTiterGlo). […]
Inconclusive results are not listed. Activity calls are given as the source filed them. The call rests on the fitted dose curve; in most records, active means well fitted cell-killing curve with a large enough effect; inconclusive means small, poorly fitted or top-dose-only effect, or effect the other way; inactive means no such curve, though single readings can be large or run the other way.
API: response.call in 1.0 (active), 0.0 (inactive)

O=C(O)c1nc(=O)[nH]c(=O)[nH]1 ... 1.0

Q: Per the records of this test, what outcome belongs to `N=C1SC(=Cc2ccc(-c3ccc4c(c3)C(=O)NC4=O)o2)C(=O)N1c1ccc(Br)cc1` ?
A: 1.0

Q: Per the records of this test, what outcome belongs to `Cc1ccc(NC(=O)c2cccc(N(C)C)c2)cc1NC(=O)c1ccc(O)cc1` ?
A: 0.0

Q: Per the records of this test, what outcome belongs to `CC1CCN(c2cc(N3CCN(C)CC3)ccc2NC(=O)c2cc(C#N)c[nH]2)CC1` ?
A: 1.0

---

# Assay Procedure: NS1 protein of Zika virus - qHTS assay to identify small molecule inhibitors in human HEK 293 cells (AID 1347053); further: nearly all actives have a fitted effect of over 55% in size
# Measurement Setup: HEK293 ZIKV MR766 infection, NS1 TR-FRET, 24 h; series mostly up to 46.1 µM
Records with an inconclusive call do not appear. Calls of active or inactive are those of the source. Calls follow the shape of the dose curve; as a rule, active = well fitted inhibition curve with a large enough effect; inconclusive = small, poorly fitted or top-dose-only effect; inactive = no such curve, though single readings can be large or run the other way.
API: response.call in active, inactive

Solved entries:
Cn1c(=O)c(-c2c(Cl)cccc2Cl)cc2cnc(Nc3cccc(C(=O)O)c3)nc21 ... inactive
CN1CCc2c(n(Cc3ccc(C(=O)NO)cc3)c3ccccc23)C1 ... inactive
CC(C)CNc1ccnc(NCc2csc(-c3ccccc3)n2)n1 ... active
Cc1nc2c([nH]1)CCN(C(=O)c1ccc(NC(=O)c3ccccc3-c3ccccc3)cc1)c1ccccc1-2 ... inactive

Pending compound:
Q: Per the records of this test, what outcome belongs to `N#Cc1c(N(CC(=O)O)CC(=O)O)sc(C(=O)O)c1CC(=O)O` ?
A: inactive

---

# Assay Procedure: qHTS of pediatric cancer cell lines to identify multiple opportunities for drug repurposing: Primary screen for SK-N-MC cells (AID 1347093)
# Measurement Setup: SK-N-MC viability, CellTiter-Glo luminescence, 48 h; series mostly up to 46 µM
Inconclusive results are not listed. Active and inactive are the calls of the source. The call rests on the fitted dose curve; in most records, active means well fitted cell-killing curve with a large enough effect; inconclusive means small, poorly fitted or top-dose-only effect; inactive means no such curve, though single readings can be large or run the other way.
API: response.call in yes (1) (active), no (0) (inactive)

Solved entries:
Cc1ccc(NC(=O)c2cccc(N(C)C)c2)cc1NC(=O)c1ccc(O)cc1 ... yes (1)
CC(C)=CCCC(C)=CCCC(C)=CCCC(C)=CCCC(C)=CCCC(C)=CCCC(C)=CCCC(C)=CCCC(C)=CCO ... no (0)

Pending molecule:
Q: Per the records of this test, what outcome belongs to N#CC(c1ccc(Cl)cc1)c1c(Cl)cc(-n2ncc(=O)[nH]c2=O)cc1Cl (stereo not given) ?
A: yes (1)

---

# Assay Procedure: P-glycoprotein substrates identified in KB-8-5-11 adenocarcinoma cell line, qHTS therapeutic library screen (AID 1346987); further: nearly all actives have a fitted effect of over 65% in size
# Measurement Setup: KB-8-5-11 (P-gp overexpressing) viability, CellTiter-Glo, 72 h; series mostly up to 44.5 µM
Records with an inconclusive call do not appear. Calls of active or inactive are those of the source. The call rests on the fitted dose curve; in most records, active means well fitted inhibition curve with a large enough effect; inconclusive means small, poorly fitted or top-dose-only effect; inactive means flat fitted curve, though single readings scatter.
API: response.call in yes (1) for active, no (0) for inactive

Solved entries:
Cc1cccc(-c2[nH]c(C(C)(C)C)nc2-c2ccc3c(c2)OCO3)n1 ... yes (1)
NS(=O)(=O)c1cc(Cl)c(Cl)c(S(N)(=O)=O)c1 ... no (0)
Oc1ccc(C=Cc2cc(O)cc(O)c2)cc1 ... no (0)
CCOC(=O)[C@@H](N)CCC(=O)N[C@@H](CSCc1ccccc1)C(=O)N[C@@H](C(=O)OCC)c1ccccc1 ... no (0)

Q: Per the records of this test, what outcome belongs to OC1CCC(Nc2ncc3nc(Nc4c(F)cc(F)cc4F)n([C@@H]4CCOC4)c3n2)CC1 (stereo not given in full) ?
A: no (0)
